Value source: PubChem BioAssay (NCI)

Test system: SNB-75 CNS
test-name: NCI tumour cell line growth inhibition, 48 h
Give GI50 for every item shown.

// query Quick one: GI50 for CN1CCN(C(=O)OCc2nc3c(N4CCOCC4)nc(-c4ccccc4)nc3n2C)CC1 ?
// result 1040 nM

// query Recorded GI50 for Cc1cccc2c1NC(=O)[C@@H](NC(=O)[C@H](CCC(F)(F)F)[C@H](CCC(F)(F)F)C(N)=O)N=C2c1cccc(F)c1 , please?
// result 10800 nM

// query Value lookup for GI50; key = COc1ccc(-c2nc(Nc3ccc(F)cc3)nc(Nc3ccc4c(c3)nc(C)n4Cc3ccccc3)n2)cc1
// result 2830 nM

// query Look up GI50: NNC(=S)N/N=C/c1ccccn1
// result 1720 nM

// query Quick one: GI50 of O=C(NCCNc1nccc(-c2c(-c3ccc(F)cc3)nc3sccn23)n1)Nc1cccc(C(F)(F)F)c1 ?
// result 7130 nM

----------
Test system: M14 melanoma
test-name: NCI tumour cell line growth inhibition, 48 h; in the data active means GI50 below about 0.43 µM; inactive means the rest
Please state which outcome applies, choosing from YES for active, NO for inactive

// query Please let me know the test result on file for O=C(NCCNc1nccc(-c2c(-c3ccc(F)cc3)nc3sccn23)n1)Nc1cccc(C(F)(F)F)c1 .
// result NO

// query Recorded test call requested for COc1c(O)cc2c(c1CC=C(C)C)OC(=O)c1c(cc(O)c(CC=C(C)C)c1O)O2
// result NO

// query Query: recorded result category for O=C(NC(=S)Nc1ccc(-c2nc3ccccc3[nH]2)cc1)c1ccc2ccccc2c1 in this test
// result NO

// query Outcome? Nc1n[nH]c2ccc([C@H]3[C@@H]4C5CCC(C5)[C@@H]4c4c(ccc5[nH]ncc45)N3S(=O)(=O)C3CC3)cc12 (stereo partly drawn)
// result YES

// query Record lookup: outcome of this test for N#C/C(=C\c1ccc([N+](=O)[O-])cc1)n1nnc2cc(F)c(F)cc21 ?
// result NO

// query Status in this test for NS(=O)(=O)c1ccc(N=Nc2c(O)[nH]c3cccc(CCc4ccncc4)c23)cc1 ?
// result NO

// query Hi, do you know how Oc1c(CCl)cc(Cl)cc1Cc1cc(Cl)cc(Cc2cc(Cl)cc(CCl)c2O)c1O came out in this test?
// result NO

// query In this assay, the call recorded for CN1CCN(C(=O)OCc2nc3c(N4CCOCC4)nc(-c4ccccc4)nc3n2C)CC1 was what?
// result NO

----------
Tested on: IGROV1 ovarian
test-name: NCI tumour cell line growth inhibition, 48 h
Could you please report measured TGI for the items listed next?

// query Request the reported TGI associated with Cc1ccc2[nH]c3c(C)c4cc[n+](C)cc4c(C)c3c2c1
// result 32.2 µM

// query Can you share its TGI? I mean this compound: COc1cc(C2SC(N)=Nc3c2c(C)nn3C(=O)Cc2ccccc2)cc(OC)c1OC (stereo not given)
// result > 100 µM

// query What value of TGI has been recorded for this entry: COc1cc(C)cc(C(=O)OCc2ccccc2)c1C1=C(Cl)C(=O)C(Cl)=CC1=O
// result > 10 µM

// query Endpoint output: TGI of O=C1CNC(=O)N1 . Value?
// result > 1120 µM

// query Please report the recorded TGI for CC1NC(=O)c2c(-c3ccccc3)nn(-c3ccccc3)c2NC1=O (stereo not given) .
// result > 100 µM

// query Requested field: TGI. Item: O=C(CSc1nc(-c2ccccc2)c(-c2ccccc2)[nH]1)N/N=C/c1ccc([N+](=O)[O-])cc1
// result 33.8 µM

// query Given the compound Cn1c(=O)oc2cc(C(=O)CN3CCN(Cc4ccc5c(c4)OCO5)CC3)c(Cl)cc21 , what is its reported TGI?
// result > 100 µM

// query Requested read-out: TGI. Entry: CCOC(=O)c1c2c(n(Cc3ccccc3)c1C)-c1nc[nH]c1C(=O)C2=O
// result 30.6 µM

// query Which TGI value belongs to Cc1cc(S(=O)(=O)Nc2n[nH]c(-c3ccc(Cl)cc3)c2C#N)c(S)cc1Cl ?
// result > 100 µM

// query Which TGI is reported for this compound? O=C(Nn1c(-c2ccccc2)nc2ccccc2c1=O)c1ccc([N+](=O)[O-])cc1
// result > 100 µM
